target: h-jak3(810-1124) (JAK3: Recombinant human kinase domain) (Homo sapiens, UniProt P52333); construct: jak3(810- 1124)-sf9-c; test: Determination of IC50 of Janus Kinase (JAK) inhibition: JAK3 radioactive end-point 33P-ATP kinase assay; conditions: no additive; ATP 1.5 uM, peptide 50 uM, 20 minutes, room temperature; read-out: Ic50 h-jak3(810-1124)-sf9-c: no additive
Sequence (P52333 810-1124): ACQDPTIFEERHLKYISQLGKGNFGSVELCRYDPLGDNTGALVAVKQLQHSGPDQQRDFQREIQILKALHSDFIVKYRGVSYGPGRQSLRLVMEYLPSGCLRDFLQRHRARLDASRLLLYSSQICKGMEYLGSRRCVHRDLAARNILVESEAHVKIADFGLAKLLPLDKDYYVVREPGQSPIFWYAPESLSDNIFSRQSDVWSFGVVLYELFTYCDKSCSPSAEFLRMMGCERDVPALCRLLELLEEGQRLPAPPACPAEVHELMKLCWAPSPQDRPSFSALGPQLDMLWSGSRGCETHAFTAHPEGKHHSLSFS
pIC50: −log10 of the molar value.
Property Name: pIC50

Example entries begin here.
> print(dat)
                                   compound  result.number
1  CNC(=O)c1cccc(-c2cnc3[nH]cc(C(=O)N[C@H](C)C(=O)N4CC(C#N)C4)c3n2)c1           8.91
2  C[C@@H](NC(=O)c1c[nH]c2ncc(-c3cc(OCC4CC4)ccn3)nc12)C(=O)N1CC(C#N)C1           8.59
3  N#CC1CCN(C(=O)[C@@H](Cc2ccccc2)NC(=O)c2c[nH]c3ncc(C4CC4)nc23)CC1           9.22
4  O=C(N[C@@H](C(=O)N1CCCC1)C1CCCC1)c1c[nH]c2ncc(C3CC3)nc12           8.40
5  C[C@@H](NC(=O)c1c[nH]c2ncc(-c3cc4nccc(Cl)c4s3)nc12)C(=O)N1CC(C#N)C1           7.79
6  CC(C)(C)[C@@H](NC(=O)c1c[nH]c2ncc(OCCC(F)(F)F)nc12)C(=O)N1CCC(C#N)CC1           7.77

1: CC(C)(C)[C@@H](NC(=O)c1c[nH]c2ncc(C3CC3)nc12)C(=O)N1CCCC(C#N)C1 (stereo partly shown)
2: CC(C)NC(=O)c1cccc(-c2cnc3[nH]cc(C(=O)N[C@H](C)C(=O)N4CC(C#N)C4)c3n2)c1
3: CCn1cc(-c2cnc3[nH]cc(C(=O)N[C@@H](C(=O)N4CC(C)(O)C4)C4CC4)c3n2)cn1
4: N#CC1CN(C(=O)[C@@H](NC(=O)c2c[nH]c3ncc(C4CC4)nc23)C2CCOCC2)C1
Hello, I need these entries ordered by pIC50, highest reading first. Thanks! Write out the labels following the order that was asked for.
3, 2, 1, 4
(3: 8.70, 2: 8.24, 1: 7.87, 4: 6.27)

###

target: h-jak3(810-1124) (JAK3: Recombinant human kinase domain) (Homo sapiens, UniProt P52333); construct: jak3(810- 1124)-sf9-c; assay: Determination of IC50 of Janus Kinase (JAK) inhibition: JAK3 radioactive end-point 33P-ATP kinase assay; settings: no additive; ATP 1.5 uM, peptide 50 uM, 20 minutes, room temperature; read-out: Ic50 h-jak3(810-1124)-sf9-c: no additive
Recorded IC50 values for a group of compounds are listed next.

Example entries begin here.
> print(dat)
                      smiles.representation     result
1  CC(C)C[C@@H](NC(=O)c1c[nH]c2ncc(-c3cnn(C)c3)nc12)C(=O)N1CC(C#N)C1  ≤ 0.32 nM
2  N#CC1CN(C(=O)[C@H](NC(=O)c2c[nH]c3ncc(-c4ccc(N5CCOCC5)cc4)nc23)C2CC2)C1  ≤ 0.32 nM

In the following, a different compound is considered.
If you can, please state the reported IC50 value of `CC(C)(C)[C@@H](NC(=O)c1c[nH]c2ncc(-c3cnn(C4CC4)c3)nc12)C(=O)N1CCC(C#N)CC1` .
≤ 0.32 nM
